Tested on: SW-620
test.summary: NCI tumour cell line growth inhibition, 48 h
Activity calls are given as the source filed them. Cut-off read from the data, not from the text of the source: active = GI50 up to about 1.1 µM and inactive = higher.
readout.kind: GI50

>>> endpoint_result("O=S(=O)(N=S(c1ccc(Cl)cc1)c1ccc(Cl)cc1)c1ccccc1")
"> 100 µM (inactive)"
>>> endpoint_result("C=C1C(=O)OC2C1CCC(C)C1C=CC(=O)C12C (stereo not given)")
"1.8 µM (inactive)"
>>> endpoint_result("CC1(n2nc(-c3ccccc3)n(-c3ccccc3)c2=O)CSC1")
"> 100 µM (inactive)"
>>> endpoint_result("N=C(N)NCCCC(Nc1c2ccccc2[n+]([O-])c2ccccc12)C(=O)O (stereo not given)")
"59.2 µM (inactive)"
>>> endpoint_result("CC(C)(C)n1c(=O)n(C(=O)C(Cl)(Cl)Cl)n(C(=O)C(Cl)(Cl)Cl)c1=O")
"> 100 µM (inactive)"
>>> endpoint_result("C[N+]1(CCCC[N+]2(C)CCCCCCC2)CCCCCCC1")
"> 100 µM (inactive)"

For each of the items listed, what is its GI50?
1. C1CSCC2(COC2)CS1
2. CCOC(=O)/C=C(\C(=O)OCC)n1ccc(=O)n(Cc2cn(CCCCOC(C)=O)nn2)c1=O

1: > 100 µM (inactive); 2: 3.14 µM (inactive)

For each of the items listed, what is its GI50?
1. COc1ccc(S(=O)(=O)N/N=C/C(=O)O)cc1
2. Oc1cccc(-c2ccc3c4c2O[C@H]2c5[nH]c6ccccc6c5C[C@@]5(O)[C@@H](C3)N(CC3CC3)CC[C@]425)c1

["485 µM (inactive)", "1.88 µM (inactive)"]
